target: KPC-2 (Klebsiella pneumoniae, UniProt Q9F663); construct: AmpC, TEM-1, KPC-2 or OXA-2 domain excluding signal peptide was amplified with PCR; assay: β-Lactamase inhibitory activity (nitrocefin hydrolysis), KPC-2; settings: KPC-2 0.5 nM, 100 μM nitrocefin, pre-incubation 30° C. 10 minutes
Sequence (Q9F663 25-293, looked up): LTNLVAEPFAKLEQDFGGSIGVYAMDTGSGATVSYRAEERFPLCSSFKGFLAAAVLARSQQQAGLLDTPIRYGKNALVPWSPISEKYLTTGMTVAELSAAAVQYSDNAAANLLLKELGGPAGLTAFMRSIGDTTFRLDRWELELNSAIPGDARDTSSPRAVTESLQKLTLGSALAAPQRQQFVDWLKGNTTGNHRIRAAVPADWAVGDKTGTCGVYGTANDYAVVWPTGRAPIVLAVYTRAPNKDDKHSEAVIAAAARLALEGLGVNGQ
endpoint: IC50

Prompt: Look up IC50: C[C@@H](N)CONC(=O)[C@@H]1CC[C@@H]2CN1C(=O)N2OS(=O)(=O)O [Example 67]
Completion: 1000 to 3000 nM

Prompt: Consider the compound shown here: O=C(NNC(=O)[C@@H]1CC[C@@H]2CN1C(=O)N2OS(=O)(=O)O)[C@@H]1CCCCN1 [Example 36] What is its recorded IC50?
Completion: 1000 to 3000 nM

Prompt: // IC50 lookup, key: O=C(NOC[C@@H]1CCCCN1)[C@@H]1CC[C@@H]2CN1C(=O)N2OS(=O)(=O)O [Example 78]
Completion: 1000 to 3000 nM

Prompt: Param item = O=C(NNC(=O)[C@@H]1CC[C@@H]2CN1C(=O)N2OS(=O)(=O)O)c1ccccc1 (racemic) [Example 30] ; retrieve measured IC50.
Completion: 100 to 1000 nM

Prompt: Please give the measured IC50 for this compound: O=C([C@@H]1CC[C@@H]2CN1C(=O)N2OS(=O)(=O)O)N1CCCO1 [Example 70]
Completion: 100 to 1000 nM

Data origin, for the record: patent US10556905B2
